# assayed system: P2X purinoceptor 7 (Homo sapiens)
# Sequence (Q99572 whole entry): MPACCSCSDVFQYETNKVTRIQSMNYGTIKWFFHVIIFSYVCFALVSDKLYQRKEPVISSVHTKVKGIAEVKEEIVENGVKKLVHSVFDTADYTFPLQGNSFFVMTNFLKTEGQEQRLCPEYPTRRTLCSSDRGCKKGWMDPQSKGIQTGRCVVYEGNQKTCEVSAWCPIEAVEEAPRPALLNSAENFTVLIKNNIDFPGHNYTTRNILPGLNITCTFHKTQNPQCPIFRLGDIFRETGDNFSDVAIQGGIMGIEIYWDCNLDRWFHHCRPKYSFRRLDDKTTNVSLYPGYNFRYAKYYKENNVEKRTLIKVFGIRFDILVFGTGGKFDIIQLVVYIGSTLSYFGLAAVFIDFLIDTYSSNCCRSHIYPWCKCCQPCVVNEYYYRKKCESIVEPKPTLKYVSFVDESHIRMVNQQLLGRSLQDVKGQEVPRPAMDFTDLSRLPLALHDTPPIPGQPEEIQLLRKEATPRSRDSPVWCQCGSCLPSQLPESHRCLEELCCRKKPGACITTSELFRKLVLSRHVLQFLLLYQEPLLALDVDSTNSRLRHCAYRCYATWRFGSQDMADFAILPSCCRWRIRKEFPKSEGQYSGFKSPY
# protocol text: Antagonist activity at human P2X7 receptor expressed in HEK293 cells assessed as inhibition of BzATP-induced EtBr uptake measured after 2 hrs by fluorescence analysis
# Format: cell-based
quantity kind: pIC50
# pIC50 is unitless: minus log10 of the molar concentration; print number only

Solved entries:
- line notation: "CNC(=O)c1cccc(S(=O)(=O)Oc2ccc(-c3cncn3C3CCN(C(=O)c4ccc([N+](=O)[O-])cc4)CC3)cc2)c1"
  assayed system: "P2X purinoceptor 7 (Homo sapiens)"
  pIC50: 7.21
- line notation: "CCN(CC)c1ccc(C(=O)N2CCC(n3cncc3-c3ccc(OS(=O)(=O)c4cccc5cnccc45)cc3)CC2)cc1"
  assayed system: "P2X purinoceptor 7 (Homo sapiens)"
  pIC50: 5.84

Here is the next item to consider.
Task: Quote pIC50 reported for CN(C)c1ccc(C(=O)N2CCC(n3cncc3-c3ccc(OS(=O)(=O)c4cccc5cnccc45)cc3)CC2)cc1 please.
Output: 9.96
